Test system: Klebsiella pneumoniae
assay-text: Antimicrobial activity against multidrug-resistant Klebsiella pneumoniae ATCC 700603 by tube dilution method
Type: functional
Numbered stars: 1 amine (or outer) side, 2 acyl side, 3 side chain; on linkers, the order of the positions; unused ones are H or OH. Bridge positions count the residues as written; N and C are the ends. Square brackets hold non-standard residues; d marks the D form. Peptide text beside a SMILES is read from it. ξ: configuration not given here. Dip = N[C@H](C(=O)O)C(c1ccccc1)c1ccccc1; 2Nal = N[C@@H](Cc1ccc2ccccc2c1)C(=O)O; X1 = NC(CCN[*:2])C(=O)[*:1]; ξDab = NCCC(N)C(=O)O; GABA = NCCCC(=O)O
Here, each record is paired with measured MIC data.
Write it as a number; the unit µM goes unstated.

Measured MIC, CC(C)C[C@@H]1NC(=O)CCCNC(=O)C(N)CCNC(=O)[C@H](Cc2ccc3ccccc3c2)NC(=O)[C@H](CCCNC(=N)N)NC(=O)[C@H](CC(C)C)NC(=O)[C@H](Cc2ccc3ccccc3c2)NC(=O)[C@H](CCCNC(=N)N)NC1=O (stereo partly specified) (H-[ξDab][GABA]LR[2Nal]LR[2Nal]; lactam 1-C) : 32

More entries:
So for CC(C)C[C@@H]1NC(=O)CNC(=O)[C@H](C(c2ccccc2)c2ccccc2)NC(=O)[C@H](CCCNC(=N)N)NC(=O)[C@H](CC(C)C)NC(=O)[C@H](C(c2ccccc2)c2ccccc2)NC(=O)[C@H](CCCNC(=N)N)NC1=O (cyclo([Dip]GLR[Dip]LR)) , the logged MIC turned out to be 128

# MIC of CC(C)C[C@@H]1NC(=O)C(N)CCNC(=O)C(N)CCNC(=O)[C@H](Cc2ccc3ccccc3c2)NC(=O)[C@H](CCCNC(=N)N)NC(=O)[C@H](CC(C)C)NC(=O)[C@H](Cc2ccc3ccccc3c2)NC(=O)[C@H](CCCNC(=N)N)NC1=O (stereo partly specified) (H-[ξDab]LR[2Nal]LR[2Nal]; linker 1-C via X1) = 128

For CC(C)C[C@@H]1NC(=O)[C@H](Cc2ccc3ccccc3c2)NC(=O)[C@H](CCCNC(=N)N)NC(=O)[C@H](CC(C)C)NC(=O)[C@@H](N)CCCCNC(=O)[C@H](Cc2ccc3ccccc3c2)NC(=O)[C@H](CCCNC(=N)N)NC1=O (H-KLR[2Nal]LR[2Nal]; lactam 1-C) the compound record lists MIC as 32

----------
Tested on: Klebsiella pneumoniae
assay-text: Antimicrobial activity against multidrug-resistant Klebsiella pneumoniae ATCC 700603 by tube dilution method
Format: functional
Numbered stars: 1 amine (or outer) side, 2 acyl side, 3 side chain; on linkers, the order of the positions; unused ones are H or OH. Bridge positions count the residues as written; N and C are the ends. Square brackets hold non-standard residues; d marks the D form. Peptide text beside a SMILES is read from it. ξ: configuration not given here. NH(CH2)9CO = O=C(CCCCCCCCCN[*:1])[*:2]; 2Nal = N[C@@H](Cc1ccc2ccccc2c1)C(=O)O; X1 = NC(CCN[*:2])C(=O)[*:1]; ξAoc(2) = CCCCCCC(N)C(=O)O; ξDab = NCCC(N)C(=O)O
assay-metric: MIC

Worked cases, MIC given:
Please fill in: MIC reported for CC(C)C[C@@H]1NC(=O)[C@H](Cc2ccc3ccccc3c2)NC(=O)[C@H](CCCNC(=N)N)NC(=O)[C@H]([C@@H](C)O)NC(=O)CNC(=O)[C@H](Cc2ccc3ccccc3c2)NC(=O)[C@H](CCCNC(=N)N)NC1=O (cyclo([2Nal]GTR[2Nal]LR)) = > 128 µM

MIC reported for this compound CC(C)C[C@@H]1NC(=O)CNC(=O)[C@H](Cc2c[nH]c3ccccc23)NC(=O)[C@H](CCCCN)NC(=O)[C@H](CC(C)C)NC(=O)[C@H](Cc2c[nH]c3ccccc23)NC(=O)[C@H](CCCCN)NC1=O (cyclo(GLKWLKW)) : > 128 µM

Lab book: MIC of CCCCCC[C@H]1NC(=O)[C@H](Cc2ccc3ccccc3c2)NC(=O)[C@H](CCCNC(=N)N)NC(=O)[C@H](CC(C)C)NC(=O)CNC(=O)[C@H](Cc2ccc3ccccc3c2)NC(=O)[C@H](CCCNC(=N)N)NC1=O noted as 64 µM

Measured MIC, CC(C)C[C@@H]1NC(=O)CNC(=O)[C@H](Cc2ccc3ccccc3c2)NC(=O)[C@H](CCCCN)NC(=O)[C@H](CC(C)C)NC(=O)[C@H](Cc2ccc3ccccc3c2)NC(=O)[C@H](CCCCN)NC1=O (cyclo([2Nal]GLK[2Nal]LK)) : > 128 µM

Notebook: CC(C)C[C@@H]1NC(=O)CCCCCCCCCNC(=O)[C@H](Cc2ccc3ccccc3c2)NC(=O)[C@H](CCCNC(=N)N)NC(=O)[C@H](CC(C)C)NC(=O)[C@H](Cc2ccc3ccccc3c2)NC(=O)[C@H](CCCNC(=N)N)NC1=O (cyclo([2Nal]LR[2Nal][NH(CH2)9CO]LR)) , MIC read as > 64 µM

Further cases:
For this compound ( CC(C)C[C@@H]1NC(=O)CNC(=O)[C@H](Cc2ccc3ccccc3c2)NC(=O)[C@H](CCCNC(=N)N)NC(=O)[C@H](CC(C)C)NC(=O)[C@H](Cc2ccc3ccccc3c2)NC(=O)[C@H](CCCCN)NC1=O (cyclo([2Nal]GLK[2Nal]LR)) ), measured MIC is > 128 µM

The compound listed as CCCCCCC1NC(=O)[C@H](Cc2ccc3ccccc3c2)NC(=O)[C@H](CCCNC(=N)N)NC(=O)[C@H](CC(C)C)NC(=O)C(N)CCNC(=O)C(N)CCNC(=O)[C@H](Cc2ccc3ccccc3c2)NC(=O)[C@H](CCCNC(=N)N)NC1=O (stereo partly drawn) (H-[ξDab]LR[2Nal][ξAoc(2)]R[2Nal]; linker 1-C via X1) has a reported MIC of 64 µM

The value of MIC measured for the compound CCCCCCC1NC(=O)[C@@H](Cc2ccc3ccccc3c2)NC(=O)[C@H](CCCNC(=N)N)NC(=O)[C@H](CC(C)C)NC(=O)CNC(=O)[C@H](Cc2ccc3ccccc3c2)NC(=O)[C@H](CCCNC(=N)N)NC1=O (stereo partly drawn) turned out to be 64 µM

----------
Reported hemolysis at 1 h, 150 µM values for a set of compounds
assay-text: Toxicity in human erythrocytes assessed as hemolysis at 150 uM after 1 hr
Assay type: cell-based, Erythrocyte
reported-conditions: read-out: Activity
Square brackets hold non-standard residues; d marks the D form. Peptide text beside a SMILES is read from it. ξ: configuration not given here. 2Nal = N[C@@H](Cc1ccc2ccccc2c1)C(=O)O; Cha = N[C@@H](CC1CCCCC1)C(=O)O; ξNle = CCCCC(N)C(=O)O
Field: numeric (%). Do not append units.

The reported hemolysis at 1 h, 150 µM of the compound CCCCC1NC(=O)[C@H](Cc2ccc3ccccc3c2)NC(=O)[C@H](CCCNC(=N)N)NC(=O)[C@H](CC(C)C)NC(=O)CNC(=O)[C@H](Cc2ccc3ccccc3c2)NC(=O)[C@H](CCCNC(=N)N)NC1=O (some centres not stated) (cyclo([2Nal]GLR[2Nal][ξNle]R)) was 35

Here's the next entry for you.
Given item CC(C)C[C@@H]1NC(=O)CNC(=O)[C@H](Cc2ccc3ccccc3c2)NC(=O)[C@H](CCCNC(=N)N)NC(=O)[C@H](CC2CCCCC2)NC(=O)[C@H](Cc2ccc3ccccc3c2)NC(=O)[C@H](CCCNC(=N)N)NC1=O (cyclo([2Nal][Cha]R[2Nal]GLR)) , the value recorded as its hemolysis at 1 h, 150 µM is 96

----------
assay-text: Toxicity in human erythrocytes assessed as hemolysis at 150 uM after 1 hr
Type: cell-based, Erythrocyte
reported-conditions: read-out: Activity
Numbered stars: 1 amine (or outer) side, 2 acyl side, 3 side chain; on linkers, the order of the positions; unused ones are H or OH. Bridge positions count the residues as written; N and C are the ends. Square brackets hold non-standard residues; d marks the D form. Peptide text beside a SMILES is read from it. ξ: configuration not given here. 2Nal = N[C@@H](Cc1ccc2ccccc2c1)C(=O)O; X1 = NC(CCN[*:2])C(=O)[*:1]; ξAoc(2) = CCCCCCC(N)C(=O)O; ξDab = NCCC(N)C(=O)O
assay-metric: hemolysis at 1 h, 150 µM

// field: hemolysis at 1 h, 150 µM; key: CC(C)C[C@@H]1NC(=O)CNC(=O)[C@H](Cc2ccc3ccccc3c2)NC(=O)[C@H](CCCNC(=N)N)NC(=O)[C@@H]2CCCN2C(=O)[C@H](Cc2ccc3ccccc3c2)NC(=O)[C@H](CCCNC(=N)N)NC1=O (cyclo([2Nal]GLR[2Nal]PR)) ; value = < 8%

Entry under test: CCCCCCC1NC(=O)[C@H](Cc2ccc3ccccc3c2)NC(=O)[C@H](CCCNC(=N)N)NC(=O)[C@H](CC(C)C)NC(=O)C(N)CCNC(=O)C(N)CCNC(=O)[C@H](Cc2ccc3ccccc3c2)NC(=O)[C@H](CCCNC(=N)N)NC1=O (stereo partly drawn) (H-[ξDab]LR[2Nal][ξAoc(2)]R[2Nal]; linker 1-C via X1) . Its hemolysis at 1 h, 150 µM was 100%

Others:
Sample CCCCCC[C@H]1NC(=O)[C@H](Cc2ccc3ccccc3c2)NC(=O)[C@H](CCCNC(=N)N)NC(=O)[C@H](CC(C)C)NC(=O)CNC(=O)[C@H](Cc2ccc3ccccc3c2)NC(=O)[C@H](CCCNC(=N)N)NC1=O ; hemolysis at 1 h, 150 µM observed: 100%

Notebook: CC(C)C[C@@H]1NC(=O)CNC(=O)[C@H](Cc2ccc(O)cc2)NC(=O)[C@H](CCCNC(=N)N)NC(=O)[C@H](CC(C)C)NC(=O)[C@H](Cc2ccc3ccccc3c2)NC(=O)[C@H](CCCNC(=N)N)NC1=O (cyclo([2Nal]LRYGLR)) , hemolysis at 1 h, 150 µM read as 19%

Looking up CC(C)C[C@@H]1NC(=O)CNC(=O)[C@@H](Cc2ccc3ccccc3c2)NC(=O)[C@H](CCCNC(=N)N)NC(=O)[C@H](CC(C)C)NC(=O)[C@H](Cc2ccc3ccccc3c2)NC(=O)[C@H](CCCNC(=N)N)NC1=O , I see its hemolysis at 1 h, 150 µM listed as < 8%

Briefly, hemolysis at 1 h, 150 µM measured for CC(C)C[C@@H]1NC(=O)[C@H](Cc2ccc3ccccc3c2)NC(=O)[C@H](CCCNC(=N)N)NC(=O)[C@H]([C@@H](C)O)NC(=O)CNC(=O)[C@H](Cc2ccc3ccccc3c2)NC(=O)[C@H](CCCNC(=N)N)NC1=O (cyclo([2Nal]GTR[2Nal]LR)) : < 8%

Memo: CC(C)C[C@@H]1NC(=O)CNC(=O)[C@H](Cc2ccc3ccccc3c2)NC(=O)[C@H](CCCNC(=N)N)NC(=O)[C@H](CC(C)C)NC(=O)[C@H](Cc2ccc3ccccc3c2)NC(=O)[C@H](CCCNC(=N)N)NC1=O , reported hemolysis at 1 h, 150 µM: 27%

Reported hemolysis at 1 h, 150 µM of CC(C)C[C@@H]1NC(=O)CNC(=O)[C@H](Cc2ccc3ccccc3c2)NC(=O)[C@H](CCCNC(=N)N)NC(=O)[C@H](CC(C)C)NC(=O)[C@H](Cc2ccc3ccccc3c2)NC(=O)[C@H](CCCCN)NC1=O (cyclo([2Nal]GLK[2Nal]LR)) : 14%
